# System: healthy ICR mice
# protocol.description: glucose tolerance test in fasted ICR mice (in vivo hypoglycemic model), serum glucose by glucose oxidase method
# assay.conditions: ICR mice fasted 16 h; dosage 10 mg/kg in 1% sodium carboxymethylcellulose; 2 g/kg glucose i.p. 2 h after test compound (Dapagliflozin: 1.5 h); serum 4 h after glucose
# Procedure: A suspension of the test compounds with […] was prepared by dissolving the sample in 1% sodium carboxymethylcellulose solution. The administration dosage is 0.2 ml/20 g body weight, which equals to a dosage of 10 mg/kg. Female and male of healthy ICR mice are half to half, and the weight is 20-24 g, in accordance with standard level one. Animals were fasted for 16 hours. […]
property.name: blood glucose at 4 h
Note to self: number, then unit, no commentary.

[in] Can you share its blood glucose at 4 h? I mean this compound: CCOc1ccc(C(C)c2cc([C@@H]3O[C@H](CO)[C@@H](O)[C@H](O)[C@H]3O)ccc2Cl)cc1 (stereo partly shown) [Example 36]
[out] 69.1 ± 13.2 mg/dL

[in] Can you share its blood glucose at 4 h? I mean this compound: CCOc1ccc(Cc2cc([C@@H]3O[C@H](CO)[C@@H](O)[C@H](O)[C@H]3O)ccc2Cl)cc1 [Dapagliflozin, reference compound]
[out] 60.0 ± 11.0 mg/dL

[in] Can you share its blood glucose at 4 h? I mean this compound: CCOc1ccc(C(OC)c2cc([C@@H]3O[C@H](CO)[C@@H](O)[C@H](O)[C@H]3O)ccc2Cl)cc1 (stereo partly shown) [Example 53]
[out] 69.6 ± 17.3 mg/dL

[in] Can you share its blood glucose at 4 h? I mean this compound: CCOc1ccc(C(C)(C)c2cc([C@@H]3O[C@H](CO)[C@@H](O)[C@H](O)[C@H]3O)ccc2Cl)cc1 [Example 16]
[out] 70.3 ± 14.2 mg/dL

[in] Can you share its blood glucose at 4 h? I mean this compound: CCOc1ccc(C(F)c2cc([C@@H]3O[C@H](CO)[C@@H](O)[C@H](O)[C@H]3O)ccc2Cl)cc1 (stereo partly shown) [Example 1]
[out] 67.2 ± 17.1 mg/dL

[in] Can you share its blood glucose at 4 h? I mean this compound: CCOc1ccc(C(C)(OC)c2cc([C@@H]3O[C@H](CO)[C@@H](O)[C@H](O)[C@H]3O)ccc2Cl)cc1 (stereo partly shown) [Example 51]
[out] 75.5 ± 21.4 mg/dL

[in] Can you share its blood glucose at 4 h? I mean this compound: CCOc1ccc(C(C)(F)c2cc([C@@H]3O[C@H](CO)[C@@H](O)[C@H](O)[C@H]3O)ccc2Cl)cc1 (stereo partly shown) [Example 52]
[out] 80.0 ± 13.2 mg/dL
